tested on: ATP; experiment: switch fluorescence ratio, 500 uM ATP over buffer (Cy3 cluster intensity, sum of 5 cycles each) (fold (ratio)); higher = stronger signal-on switching upon ATP binding; sequences stand for … in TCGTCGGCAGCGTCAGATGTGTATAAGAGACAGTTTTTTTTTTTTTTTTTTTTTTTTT…TC; details: aptamer strand: ATP DNA aptamer (quencher-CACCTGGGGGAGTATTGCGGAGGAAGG + anchor), 100 nM annealed; ATP concentration: 500 uM;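 note: ATP exposure 15 min at 22 °C before imaging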
observed property: switch fluorescence ratio
Number, no unit, nothing else.

Illustrative cases are given below, each with its answer.
seq	switch fluorescence ratio
AACTCGGGGT	1.02
TATGGTGCTT	1.01
AAATGGTAAT	0.978
CTGCACCATG	1.01
TTTTTCCCGC	1.07
CGGGCGGGTG	1.03
ATAGTTCTAA	0.994
GGTTGACCCC	0.978
GCCTTACGGT	1.04
AACTGTTTGC	0.983

Request: Recorded switch fluorescence ratio of TGCGCTACGG , please.
Response: 1.08

----------
tested on: ATP; assay: switch fluorescence ratio, 500 uM ATP over buffer (Cy3 cluster intensity, sum of 5 cycles each) (fold (ratio)); higher = stronger signal-on switching upon ATP binding; sequences stand for … in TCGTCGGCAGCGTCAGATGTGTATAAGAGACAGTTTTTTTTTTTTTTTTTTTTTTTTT…TC; details: aptamer strand: ATP DNA aptamer (quencher-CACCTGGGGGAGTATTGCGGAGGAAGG + anchor), 100 nM annealed; ATP concentration: 500 uM;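 note: ATP exposure 15 min at 22 °C before imaging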
observed property: switch fluorescence ratio
Number, no unit, nothing else.

Illustrative cases are given below, each with its answer.
seq	assay target	observed property	observed result
AAATGTGTGG	ATP	switch fluorescence ratio	0.977
TATTAAACTC	ATP	switch fluorescence ratio	1.02
GGCCTCGGGG	ATP	switch fluorescence ratio	1.01
TATTAAGAGG	ATP	switch fluorescence ratio	0.98
TCGGTCAGTA	ATP	switch fluorescence ratio	1
CGCTTTGATA	ATP	switch fluorescence ratio	0.991

Request: What reported switch fluorescence ratio corresponds to CAATTGGGGA on ATP?
Response: 0.995

Request: // same read-out, input: TGATTATTT
Response: 0.978

Request: // same read-out, input: CGGTATTATG
Response: 0.993

Request: // same read-out, input: GGGGGTCTGA
Response: 1

Request: // same read-out, input: TTCATCGTCT
Response: 1.01

Request: // same read-out, input: AGCGGGAGAT
Response: 1.01

Request: // same read-out, input: TCTTTTTCCC
Response: 1.01

Request: // same read-out, input: AGGGGGGGTT
Response: 0.992

Request: // same read-out, input: GGGTTTGCTG
Response: 1.01

----------
The entries below come with measured switch fluorescence ratio values attached.
system: ATP; test: switch fluorescence ratio, 500 uM ATP over buffer (Cy3 cluster intensity, sum of 5 cycles each) (fold (ratio)); higher = stronger signal-on switching upon ATP binding; sequences stand for … in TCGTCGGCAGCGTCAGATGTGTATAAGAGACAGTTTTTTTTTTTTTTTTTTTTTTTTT…TC; conditions: aptamer strand: ATP DNA aptamer (quencher-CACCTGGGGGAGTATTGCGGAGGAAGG + anchor), 100 nM annealed; ATP concentration: 500 uM;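 note: ATP exposure 15 min at 22 °C before imaging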
Number, no unit, nothing else.

Illustrative cases are given below, each with its answer.
seq	observed result
GGAGAGGGGA	0.982
TTAGGCAGGT	0.994
TCAAGTGGCC	1.02

Request: Recorded switch fluorescence ratio of AGGTTAGTGG , please.
Response: 1.01

Request: // same read-out, input: AATCGGGTAT
Response: 0.984

Hey, just so you know, these numbers are from the supplement of paper PMC10126150.
